System: Cryptococcus neoformans
EXPERIMENT_NOTES: Antifungal activity against Cryptococcus neoformans after 48 hrs by broth microdilution method
Assay type: functional
MEASURED_PROPERTY: MIC (µM)
Lab book: enter the figure in µM, no units written.

These solved cases illustrate the format of a correct answer.
- CHEM_SMILES: "CN1CCN(C(=S)SC(=S)N(C)C)CC1"
  TEST_SYSTEM: "Cryptococcus neoformans"
  UNIT_ANNOTATION: "µM"
  MIC: 190
- CHEM_SMILES: "CCN(CC)C(=S)SC(=S)N(C)C"
  TEST_SYSTEM: "Cryptococcus neoformans"
  UNIT_ANNOTATION: "µM"
  MIC: 106
- CHEM_SMILES: "CN(C)C(=S)SC(=S)N1CCN(c2cccc(Cl)c2)CC1"
  TEST_SYSTEM: "Cryptococcus neoformans"
  UNIT_ANNOTATION: "µM"
  MIC: 139

// sample CN(C)C(=S)SC(=S)N1CCCC1 , its MIC was 214

Value of MIC reported for the molecule CN(C)C(=S)SC(=S)N1CCN(C(=S)SCc2ccccc2)CC1 is 60.1

Entry under test: CN(C)C(=S)SC(=S)N1CCN(C(=O)c2ccco2)CC1 . Its MIC was 146

Value of measured MIC for the entry CN(C)C(=S)SC(=S)N1CCCCC1 : 202

Entry under test: CN(C)C(=S)SC(=S)N1CCN(c2ncccn2)CC1 . Its MIC was 153

Looking up CCSC(=S)N1CCN(C(=S)SC(=S)N(C)C)CC1 , I see its MIC listed as 141
